tested-on: cyEpCAM ECD Ag0066 (cyno)
assay-remarks: SPR multi-cycle
readout: pKd
Please keep in mind that pKd is minus log10 of the molar concentration; only the number is needed.

The recorded pKd for entry Ab1018 (antibody, V domains shown) VH: EVQLVESGGGLVQPGGSLRLSCAASGFTFSNYWMNWVRQAPGKGLEWVAQIRVKSENFATHYADSVKGRFTISRDDSKSTVYLQMNSLRAEDTAVYYCTLYEGFSWGQGTLVTVSS VL: DIQMTQSPSSLSASVGDRVTITCSASSSVSSGNFHWYQQKPGKAPKLLIYRTSNLASGVPSRFSGSGSGTDYTLTISSLQPEDFATYYCQQWSGYPYTFGQGTKVEIK equals 8.80

Cited source for all entries: patent US20240190987A1
